# Tested on: human platelets (thrombin-induced [3H]-AA release)
# assay.procedure: Thrombin-induced [3H]-arachidonic acid release
# Type: cell-based
# condition.context: Homo sapiens, Platelet; inhibitor 1 min before thrombin (0.5 U/ml); terminated at 4 min; 3-5 donors
measure: IC50 (µM)
Report only the number, with the unit µM understood.

Exercise: # query: IC50 of entry "O=c1oc2ccc(Cl)cc2c(O)c1O"
Solution: 432

Please turn your attention to the following entry.
Exercise: Which IC50 is reported for this molecule? O=C(O)C1Cc2cc(Cl)ccc2O1 (centres unmarked)
Solution: 3870

---

# Tested on: human platelets (U46619, thromboxane A2 agonist-induced aggregation)
# assay.procedure: U46619-induced human platelet aggregation (turbidometric, + ASA)
# Format: cell-based
# condition.context: Homo sapiens, Platelet; inhibitor 1 min before U46619 (0.3 uM); aspirin 1 mM added; mean ± S.E.M., n = 3-9 donors
# Description: The antiaggregatory action of the compounds of the present invention was determined using the following procedure: ADP and AA were obtained from Sigma Chemical Co., (St. Louis, MO). […] Inhibitors were added one minute prior to induction of platelet activation. Secretion of the contests of platelet dense granules was measured by monitoring the release of radioactivity from platelets prelabeled with [^14 C]-serotonin. […]
measure: pIC50
When answering, recall that pIC50 equals minus log10 of the concentration in mol/L, and write that number alone.

Exercise: # pIC50 lookup, item O=c1oc2ccc(Cl)cc2c(O)c1O [compound IX]
Solution: 2.82

Kindly review the next compound as well.
Exercise: May I ask what pIC50 has been recorded for O=C(O)C1Cc2cc(Cl)ccc2O1 (centres unmarked) [compound X] ?
Solution: 2.83

---

# Tested on: human platelets (arachidonic acid-induced aggregation)
# assay.procedure: Arachidonic acid-induced human platelet aggregation (turbidometric)
# Assay type: cell-based
# condition.context: Homo sapiens, Platelet; inhibitor 1 min before AA (0.2-1 mM); mean ± S.E.M., n = 3-9 donors
# Method: The antiaggregatory action of the compounds of the present invention was determined using the following procedure: ADP and AA were obtained from Sigma Chemical Co., (St. Louis, MO). […] Inhibitors were added one minute prior to induction of platelet activation. Secretion of the contests of platelet dense granules was measured by monitoring the release of radioactivity from platelets prelabeled with [^14 C]-serotonin. […]
Below: a set of entries, each annotated with reported pIC50.
// field semantics: pIC50 = negative decimal log of concentration (mol/L)

Exercise: Form entry - test system: human platelets (arachidonic acid-induced aggregation); read-out: pIC50; compound: O=C(O)C1Cc2cc(Cl)ccc2O1 (centres unmarked) [compound X]
Solution: 3.07

---
Exercise: Give recorded pIC50 with human platelets (arachidonic acid-induced aggregation) for the following compound: O=c1oc2ccc(Cl)cc2c(O)c1O [compound IX]
Solution: 3.13

---

# Test system: human platelets (ADP-induced aggregation)
# assay.procedure: ADP-induced human platelet aggregation (turbidometric, secondary aggregation)
# Type: cell-based
# condition.context: Homo sapiens, Platelet; inhibitor 1 min before ADP (1-5 uM); secondary aggregation only; mean ± S.E.M., n = 3-9 donors
Parameter: IC50. Scope: all listed entries.
All answers are understood in µM, so give the number only.

Exercise: Which IC50 is listed for "O=c1oc2ccc(Cl)cc2c(O)c1O" ?
Solution: 363

Please examine the following record next.
Exercise: Look up IC50: O=C(O)C1Cc2cc(Cl)ccc2O1 (centres unmarked)
Solution: 533
